Listing of entries alongside the reported pKi.
# system-under-test: PiQC (Prevotella intermedia, UniProt A0AAD1F671)
# Sequence (A0AAD1F671 24-340 limits assumed): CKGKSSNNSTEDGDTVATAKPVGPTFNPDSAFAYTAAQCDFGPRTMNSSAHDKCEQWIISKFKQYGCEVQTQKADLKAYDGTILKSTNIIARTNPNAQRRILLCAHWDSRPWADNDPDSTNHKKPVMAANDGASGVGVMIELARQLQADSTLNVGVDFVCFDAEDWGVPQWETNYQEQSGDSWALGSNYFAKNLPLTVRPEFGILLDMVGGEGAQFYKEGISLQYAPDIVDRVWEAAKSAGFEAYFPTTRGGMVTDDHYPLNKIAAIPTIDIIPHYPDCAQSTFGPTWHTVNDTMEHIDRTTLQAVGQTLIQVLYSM
pKi is a log-scale quantity: -log10 of the concentration expressed in molar.

[[record]]
cpd_smiles = "c1ccc2[nH]cnc2c1"
endpoint_name = "pKi"
number = 4.07

[[record]]
cpd_smiles = "c1ccc(Cn2ccnc2)cc1"
endpoint_name = "pKi"
number = 4.87


Let us move to another entry and its pKi.
What value of pKi on PiQC (Prevotella intermedia, UniProt A0AAD1F671) does c1c[nH]cn1 have?
3.54

###

# system-under-test: PgQC (Porphyromonas gingivalis)
# Sequence (Q7MT37 entry or part of it): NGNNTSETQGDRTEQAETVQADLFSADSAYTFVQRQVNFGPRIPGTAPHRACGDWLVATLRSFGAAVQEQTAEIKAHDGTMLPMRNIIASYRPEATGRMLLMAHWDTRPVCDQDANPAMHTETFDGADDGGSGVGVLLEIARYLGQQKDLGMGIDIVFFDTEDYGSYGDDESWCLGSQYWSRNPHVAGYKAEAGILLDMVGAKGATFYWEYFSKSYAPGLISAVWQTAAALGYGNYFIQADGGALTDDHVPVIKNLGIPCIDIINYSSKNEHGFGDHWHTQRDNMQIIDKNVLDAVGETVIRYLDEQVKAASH
# experiment-description: QC inhibition assay with fluorogenic substrate H-Gln-AMC (Ki)
# Type: biochemical
# Set-up: His-tag (pET28a, thrombin-cleavable) (N, cleaved yes); made in house; host or cells: E. coli Rosetta(DE3)pLysS
# condition-label: stated in text for the bacteroidal QCs in general; read-out: Estimated Ki, highest efficacy
pKi: −log10 of the molar value.
endpoint-name: pKi

What does the record list as pKi for c1ccc(Cn2ccnc2)cc1 ?
~5.00
